targetEntity: ERK2 (Homo sapiens, UniProt P28482)
Construct: purchased Jubilant Biosys
Sequence (P28482 whole entry): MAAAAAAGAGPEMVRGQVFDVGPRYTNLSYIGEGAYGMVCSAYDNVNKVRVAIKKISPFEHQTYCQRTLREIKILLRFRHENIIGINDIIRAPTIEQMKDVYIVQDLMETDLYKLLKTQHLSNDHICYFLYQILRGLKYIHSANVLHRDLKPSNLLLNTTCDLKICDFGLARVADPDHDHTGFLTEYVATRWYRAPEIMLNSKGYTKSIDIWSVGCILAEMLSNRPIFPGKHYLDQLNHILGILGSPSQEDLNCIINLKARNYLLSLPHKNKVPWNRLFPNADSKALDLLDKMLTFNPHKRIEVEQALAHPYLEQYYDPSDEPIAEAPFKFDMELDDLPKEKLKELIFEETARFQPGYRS
testDetails: ERK2 HTRF (biochemical) assay
setupConditions: HTRF
pIC50: −log10 of the molar value.
In this section we review reported pIC50 values for a set of compounds.

See these solved cases before continuing.
compound="Cc1cnc(NC2CCOCC2)nc1-n1cnc(C(=O)NCc2cccc(Cl)c2CN)c1 [Example 285]" reportedendpoint=pIC50 reported="≥ 7.30"
compound="Cc1cnc(NC2CC2)nc1-n1cc(C(=O)NC(CO)c2cccc(Cl)c2)cn1 (stereo not shown) [Compound 40]" reportedendpoint=pIC50 reported="7.00 to 7.30"
compound="Cc1cnc(Nc2ccc(F)cc2Cl)cc1-n1cnc(C(=O)NC(CO)c2ccccc2)c1 (stereo not shown) [Compound 85]" reportedendpoint=pIC50 reported="6.30 to 7.00"
compound="Cc1cnc(Nc2ccc(F)cc2Cl)nc1-n1ccc(C(=O)NC(COC(=O)C(N)CC(C)C)c2ccccc2)c1 (stereo not shown) [Compound 150]" reportedendpoint=pIC50 reported="≥ 7.30"
compound="O=C(Nc1cnn(-c2ccnc(Nc3ccccc3Cl)n2)c1)N[C@H](CO)c1ccccc1 [Compound 7]" reportedendpoint=pIC50 reported="7.00 to 7.30"
compound="O=C(N[C@H](CO)c1cccc(Cl)c1)c1ccn(-c2nc(NC3CCOCC3)ncc2F)c1 [Compound 229]" reportedendpoint=pIC50 reported="≥ 7.30"

Param readout = pIC50; param system = ERK2 (Homo sapiens, UniProt P28482); param query = Cc1cnc(NC2CCOCC2)nc1-n1cnc(C(=O)N[C@H](CNCc2ccc[nH]2)c2cccc(Cl)c2)c1 [Example 306] ; response: value
≥ 7.30

###

targetEntity: ERK1 (Homo sapiens)
Construct: purchased Jubilant Biosys
testDetails: ERK1 HTRF (biochemical) assay
setupConditions: HTRF
reportedEndpoint: IC50

See these solved cases before continuing.
molecule="NCC(NC(=O)c1cn(-c2ccnc(Nc3ccc(F)cc3)c2)cn1)c1ccccc1 (stereo not drawn)" reported="< 50 nM"
molecule="O=C(NC(CO)c1ccccc1)c1ccn(-c2ccnc(Nc3ccc(F)cc3)c2)c1 (stereo not drawn)" reported="< 50 nM"
molecule=Cc1cnc(Nc2ccc(F)cc2)nc1-n1cnc(C(=O)N[C@@H](CN)c2cccc(Cl)c2)c1 reported="500 to 2500 nM"
molecule=Cc1cnc(NC2CCOCC2)nc1-n1cnc(C(=O)NCc2cccc(Cl)n2)c1 reported="< 50 nM"

Param readout = IC50; param system = ERK1 (Homo sapiens); param query = Cc1cnc(NC2CCOC2)nc1-n1ccc(C(=O)N[C@H](CO)c2cccc(Cl)c2)c1 (stereo partly drawn) ; response: value
< 50 nM

Param readout = IC50; param system = ERK1 (Homo sapiens); param query = Cc1cnc(Nc2cccc(N3CCOCC3)c2)nc1-n1cnc(C(=O)N[C@H](CN)c2cccc(Cl)c2)c1 ; response: value
< 50 nM

###

targetEntity: ERK1 (Homo sapiens, UniProt P27361)
Construct: purchased Jubilant Biosys
Sequence (P27361 whole entry): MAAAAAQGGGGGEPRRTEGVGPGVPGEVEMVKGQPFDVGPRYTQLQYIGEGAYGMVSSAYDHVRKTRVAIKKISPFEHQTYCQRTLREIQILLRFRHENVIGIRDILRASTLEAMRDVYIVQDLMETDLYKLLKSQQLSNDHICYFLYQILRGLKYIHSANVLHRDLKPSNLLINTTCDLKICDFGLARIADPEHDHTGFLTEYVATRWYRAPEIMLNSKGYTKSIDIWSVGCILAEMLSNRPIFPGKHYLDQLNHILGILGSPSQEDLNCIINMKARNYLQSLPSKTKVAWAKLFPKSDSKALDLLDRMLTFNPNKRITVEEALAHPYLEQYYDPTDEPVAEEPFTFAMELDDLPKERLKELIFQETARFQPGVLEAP
testDetails: ERK1 HTRF (biochemical) assay
setupConditions: HTRF
pIC50: −log10 of the molar value.
In this section we review reported pIC50 values for a set of compounds.

See these solved cases before continuing.
compound=Cc1cnc(N[C@H]2CCOC2)nc1-n1ccc(C(=O)N[C@H](CO)c2cccc(Cl)c2)c1 reportedendpoint=pIC50 reported="> 7.30"
compound="Cc1cnc(NC2CCCOC2)nc1-n1ccc(C(=O)N[C@H](CO)c2cccc(Cl)c2)c1 (stereo partly shown) [Compound 156]" reportedendpoint=pIC50 reported="> 7.30"
compound=O=C(N[C@H](CO)c1cccc(Cl)c1)c1cn(-c2ccnc(NC3CC3)c2)cn1 reportedendpoint=pIC50 reported="> 7.30"
compound="Cc1cnc(Nc2ccc(F)cc2Cl)nc1-n1ccc(C(=O)NC(CO)c2cccc(Cl)c2)c1 (stereo not shown)" reportedendpoint=pIC50 reported="> 7.30"
compound=Cc1cnc(NC2CCOCC2)nc1-n1cnc(C(=O)N[C@H](CNCc2ccc[nH]2)c2cccc(Cl)c2)c1 reportedendpoint=pIC50 reported="> 7.30"

Consider the compound Cc1cnc(NC2COC2)nc1-n1cnc(C(=O)N[C@H](CN)c2cccc(Cl)c2)c1 and give its measured pIC50.
> 7.30

Consider the compound Cc1cnc(NC2CCCOC2)nc1-n1ccc(C(=O)NC(CO)c2ccccc2)c1 (stereo not shown) and give its measured pIC50.
> 7.30

Consider the compound Cc1cnc(NC2CCOCC2)nc1-n1cnc(C(=O)NC(CO)c2cccc(Cl)c2)c1 (stereo not shown) and give its measured pIC50.
> 7.30

Consider the compound Cc1cnc(Nc2ccc(F)cc2)nc1-n1ccc(C(=O)N[C@H](CO)c2ccc(F)c(Cl)c2)c1 and give its measured pIC50.
> 7.30

Consider the compound Cc1cnc(Nc2ccccc2)cc1-n1cnc(C(=O)NC(CO)c2ccccc2)c1 (stereo not shown) and give its measured pIC50.
6.30 to 7.00

Consider the compound O=C(NC(CO)c1cccc(Cl)c1)c1cn(-c2ccnc(Nc3ccc4c(c3)CCO4)c2)cn1 (stereo not shown) and give its measured pIC50.
> 7.30

###

In this section we review reported IC50 values for a set of compounds.
targetEntity: ERK1 (Homo sapiens, UniProt P27361)
Construct: purchased Jubilant Biosys
testDetails: ERK1 HTRF (biochemical) assay
setupConditions: HTRF

See these solved cases before continuing.
compound="Cc1cnc(Nc2ccc(F)cc2)nc1-n1ccc(C(=O)NC(CO)c2cccc(Cl)c2)c1 (centres unmarked) [Compound 113]" reported="50 to 100 nM"
compound="Cc1cnc(NC(C)c2ccccc2)nc1-n1ccc(C(=O)NC(CO)c2ccccc2)c1 (centres unmarked) [Compound 117]" reported="100 to 500 nM"
compound="Cc1cnc(NC2CCCCC2)nc1-n1cnc(C(=O)NC(CO)c2cccc(Cl)c2)c1 (centres unmarked) [Compound 226]" reported="< 50 nM"
compound="O=C(NC(CO)c1cccc(Cl)c1)c1cn(-c2cc(Nc3ccccc3)ncc2Cl)cn1 (centres unmarked) [Compound 106]" reported="< 50 nM"
compound="Cc1cnc(Nc2ccc(F)cc2)cc1-n1cnc(C(=O)NC(CN)c2ccc(F)cc2)c1 (centres unmarked) [Compound 230]" reported="< 50 nM"

Consider the compound Cc1cnc(NC2CCCCC2O)nc1-n1ccc(C(=O)NC(CO)c2ccc(F)c(Cl)c2)c1 (centres unmarked) [Compound 202] and give its measured IC50.
50 to 100 nM

Consider the compound Cc1cnc(Nc2ccc(N3CCNCC3)cc2)nc1-n1ccc(C(=O)NC(CO)c2ccccc2)c1 (centres unmarked) [Compound 73] and give its measured IC50.
< 50 nM

Consider the compound Cc1cnc(NC2CCOCC2)nc1-n1cnc(C(=O)NC(CN)c2ccc(Cl)s2)c1 (single isomer, unassigned; enantiomer #2) [Example 291] and give its measured IC50.
< 50 nM

Consider the compound CC[C@@H](CO)Nc1cc(-n2ccc(C(=O)NC(CO)c3ccccc3)c2)c(C)cn1 (some centres unmarked) [Compound 100] and give its measured IC50.
50 to 100 nM

Consider the compound Cc1cnc(NCc2cccnc2)cc1-n1ccc(C(=O)NC(CO)c2ccc(F)c(Cl)c2)c1 (centres unmarked) [Compound 193] and give its measured IC50.
100 to 500 nM

Consider the compound Cc1cnc(Nc2ccc(F)cc2)nc1-n1cc(C(=O)NC(CO)c2ccccc2)nc1C (centres unmarked) [Compound 153] and give its measured IC50.
100 to 500 nM
